Target Desc: T1, human MICA allele MICA*001 (human, UniProt Q29983 24-297)
T1 construct: Expressed on transfected C1R cells; also called MICA*01; C1R-MICA*001
T1 sequence: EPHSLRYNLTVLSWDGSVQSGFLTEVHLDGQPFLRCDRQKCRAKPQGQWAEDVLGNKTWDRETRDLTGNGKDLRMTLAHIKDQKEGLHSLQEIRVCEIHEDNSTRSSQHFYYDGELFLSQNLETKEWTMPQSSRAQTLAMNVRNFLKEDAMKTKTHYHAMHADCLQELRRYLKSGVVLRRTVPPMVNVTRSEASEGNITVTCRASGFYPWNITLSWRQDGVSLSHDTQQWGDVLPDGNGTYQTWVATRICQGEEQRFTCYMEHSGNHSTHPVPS
Test Method Notes: flow cytometry, C1R-MICA*001 transfectant cells
Recorded Metric: EC50 (µg/mL)
Give bare numbers, in µg/mL.

These recorded examples may help you get a feel for the data.
Binder | Endpoint Unit | Measured Result
mAb12 (antibody, V domains shown, Produced in CHO cells as human IgG1 with huCk constant domain) VH: QVQLQESGPGLVKPSETLSLTCTVSGYSITSDYAWNWIRQPPGKGLEWMGFVSYSGTTKYNPSLKSRITISRDTSENQFSLKLSSVTAADTAVYYCARGYGFDYWGQGTTVTVSS VL: EIVLTQSPATLSLSPGERATLSCSATSSISSIYFHWYQQKPGQAPRLLIYRTSNLASGIPARFSGSGSGTDYTLTISSLEPEDVAVYYCQQGTTIPFTFGQGTKLEIK | µg/mL | 0.453
mAb5 (antibody, V domains shown, Produced in CHO cells as human IgG1 with huCk constant domain) VH: QVQLQESGPGLVKPSETLSLTCTVSGYSITSDYAWNWIRQPPGKGLEWMGFVSYSGTTKYNPSLKSRVTISRDTSKNQFSLKLSSVTAADTAVYYCARGYGFDYWGQGTTVTVSS VL: EIVLTQSPATLSLSPGERATLSCSATSSISSIYFHWYQQKPGQAPRLLIYRTSNLASGIPARFSGSGSGTSYTLTISSLEPEDFAVYYCQQGTTIPFTFGQGTKLEIK | µg/mL | 0.318
mAb4 (antibody, V domains shown, Produced in CHO cells as human IgG1 with huCk constant domain) VH: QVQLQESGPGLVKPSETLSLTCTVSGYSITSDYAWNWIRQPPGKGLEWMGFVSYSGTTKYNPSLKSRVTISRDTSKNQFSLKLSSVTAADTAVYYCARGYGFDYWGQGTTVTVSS VL: EIVLTQSPATLSLSPGERATLSCSATSSISSIYFHWYQQKPGQAPRLLIYRTSNLASGIPARFSGSGSGTDYTLTISSLEPEDFAVYYCQQGTTIPFTFGQGTKLEIK | µg/mL | 0.316

Alright, here's another binder for you.
q: // lookup EC50 for mAb10 (antibody, V domains shown, Produced in CHO cells as human IgG1 with huCk constant domain) VH: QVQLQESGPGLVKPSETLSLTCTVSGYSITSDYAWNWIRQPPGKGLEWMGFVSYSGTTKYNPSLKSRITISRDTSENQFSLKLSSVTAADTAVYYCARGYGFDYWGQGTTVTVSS VL: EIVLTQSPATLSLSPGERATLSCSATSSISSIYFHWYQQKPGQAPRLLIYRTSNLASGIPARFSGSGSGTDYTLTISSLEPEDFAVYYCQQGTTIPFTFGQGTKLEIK
a: 0.307
